tested on: Trichophyton mentagroprophytes; assay: standard disc-plate assay; type: cell-based; conditions: read-out: Zone Diameters
Quick rule: zone of inhibition at 100 µg/mL of at least 40 mm means Satisfied, below that means Not satisfied.

## Task Does the compound [C-]#[N+]C(=CC1=C[C@@H](O)[C@@H](O)CC1)C(=CC1CCC(OC(=O)C=C(C)C)CC1)[N+]#[C-] (relative stereo) have recorded zone of inhibition at 100 µg/mL that is 40 mm or more?
## Result Satisfied

## Task Identify whether the reported zone of inhibition at 100 µg/mL of the following compound is 40 mm or greater: [C-]#[N+]C(=CC1=C[C@@H](OC)[C@@H](O)CC1)C(=CC1CCC(OC(=O)C=C(C)C)CC1)[N+]#[C-] (relative stereo)
## Result Not satisfied

## Task Entry [C-]#[N+]C(=CC1CCC(OC(=O)CC(C)C)CC1)C(=CC1(OC(C)=O)C=CC(O)CC1)[N+]#[C-] (centres unmarked) : is its zone of inhibition at 100 µg/mL no less than 40 mm?
## Result Not satisfied

## Task Exam item: decide whether the reported zone of inhibition at 100 µg/mL for [C-]#[N+]C(=CC1=C[C@@H](O)[C@H](O)CC1)C(=CC1CCC(OC(=O)C=C(C)C)CC1)[N+]#[C-] (relative stereo) is at least 40 mm.
## Result Satisfied

Here is the next item to consider.
## Task Quick check, zone of inhibition at 100 µg/mL >= 40 mm? [C-]#[N+]C(=CC1=C[C@@H](O)[C@H](O)CC1)C(=CC1CCC(O)CC1)[N+]#[C-] (relative stereo)
## Result Not satisfied

---

test system: Escherichia coli; assay: standard disc-plate assay; type: cell-based; conditions: conc 0.1 mg/ml, disc 6.35 mm, read-out: Zone Diameters
MEASURE: zone of inhibition at 100 µg/mL (mm)
Answers are plain numbers, in mm.

Past entries and their recorded results:
## Task Report value only: zone of inhibition at 100 µg/mL, Escherichia coli, [C-]#[N+]C(=CC1CCC(OC(=O)C=C(C)C)CC1)C(=CC1(OC(C)=O)C=CC(O)CC1)[N+]#[C-] (stereo not shown)
## Result 20

## Task Param request: zone of inhibition at 100 µg/mL | system Escherichia coli | item [C-]#[N+]C(=CC1CCC(OC(=O)C=C(C)C)CC1)C(=CC1(OC(C)=O)C=CC(=O)CC1)[N+]#[C-] (stereo not shown)
## Result 17

## Task State recorded zone of inhibition at 100 µg/mL with Escherichia coli, entry [C-]#[N+]C(=CC1=C[C@@H](OC(C)=O)[C@H](O)CC1)C(=CC1CCC(OC(=O)C=C(C)C)CC1)[N+]#[C-] (relative stereo) , no comment.
## Result 15

Next compound, zone of inhibition at 100 µg/mL to be filled in.
## Task Give the observed zone of inhibition at 100 µg/mL of [C-]#[N+]C(=Cc1ccc(O)cc1)C(=CC1CCC(OC(=O)C=C(C)C)CC1)[N+]#[C-] (stereo not shown) for Escherichia coli.
## Result 15

---

tested on: Mycobacterium avium; assay: standard disc-plate assay; assay type: cell-based; conditions: conc 0.1 mg/ml, disc 6.35 mm, ^b overgrowth: factor F, read-out: Zone Diameters
Give zone of inhibition at 100 µg/mL for every item shown.
Mention the unit after the number when you answer.

Here's what some known entries look like.
## Task Look up and report measured zone of inhibition at 100 µg/mL for this entry: [C-]#[N+]C(=CC1=C[C@@H](OC(C)=O)[C@H](O)CC1)C(=CC1CCC(OC(=O)C=C(C)C)CC1)[N+]#[C-] (relative stereo)
## Result 10 mm

## Task Report measured zone of inhibition at 100 µg/mL; entry is [C-]#[N+]C(=CC1CCC(OC(=O)C=C(C)C)CC1)C(=CC1(OC(C)=O)C=CC(O)CC1)[N+]#[C-] (stereo not shown)
## Result 10 mm

## Task Read off the recorded zone of inhibition at 100 µg/mL for [C-]#[N+]C(=Cc1ccc(O)cc1)C(=CC1CCC(OC(=O)C=C(C)C)CC1)[N+]#[C-] (stereo not shown)
## Result 13 mm

Now for another entry.
## Task # return recorded zone of inhibition at 100 µg/mL for entry [C-]#[N+]C(=CC1CCC(OC(=O)C=C(C)C)CC1)C(=CC1(OC(C)=O)C=CC(=O)CC1)[N+]#[C-] (stereo not shown)
## Result 17 mm
